System: T1, recombinant human PD-L1 extracellular domain (residues 19–239), His-tagged (human, UniProt Q9NZQ7 19-239)
T1 construct: programmed death-ligand 1 (PD-L1/CD274/B7-H1), human, extracellular domain residues 19-239, subcloned from pCMV3-full-length human PD-L1 into pTT28; probably removed on secretion (surmise); also called rhPD-L1; recombinant extracellular hPD-L1; source: HEK293-6E, transiently transfected, secreted, purified (Ni-NTA Agarose, dialysis); not shown: His8, C-terminal, kept
T1 sequence (Q9NZQ7 19-239): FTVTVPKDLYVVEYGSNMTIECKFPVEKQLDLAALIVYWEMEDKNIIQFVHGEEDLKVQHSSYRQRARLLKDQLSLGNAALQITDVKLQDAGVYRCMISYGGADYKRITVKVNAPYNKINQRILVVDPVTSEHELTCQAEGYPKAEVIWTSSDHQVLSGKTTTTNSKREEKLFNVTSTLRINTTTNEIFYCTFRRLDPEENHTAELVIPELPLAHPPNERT
Experimental details: ELISA; 100 ng/well rhPD-L1 coated directly on the plate, casein block; dilution series of ATTO488-WL12 in TBS with 0.1% Tween-20, 1 h RT; read by ATTO488 fluorescence intensity; EC50 by 4-parameter logistic fit
Assay conditions: both partners purified
Reported metric: pEC50
Note on pEC50: it is the negative log10 of concentration, concentration in mol/L.

**Query** Sample YANPHLPWSWXXXCG (ClAc on the N-terminus (peptide cyclised, macrocyclic); MeAla at 2; Hyp at 7; Trp(Me) at 10; MeNle at 11 and 12; Orn at 13; C-terminal amide; ATTO488 fluorophore (site not told in the text shown)) [ATTO488-WL12] — what was its pEC50?
**Result** 8.28

Data provenance is paper PMC11154707.
